System: mice (hypoxic environment)
Experiment: Hypoxic survival test
Format: in vivo, mouse (Royal Hart)
Conditions: Mus musculus, ip, 5 min, 100 mg/kg, intraperitoneal, 10% oxygen, 5 minutes; read-out: % Survivors
Structures can show the parent of a compound that is named as a salt.
Output TRUE for responders at 100 mg/kg not less than 40%; output FALSE otherwise.

{"columns": ["Compound", "Label value"],
 "data": [
  ["CC1C=C(c2cccc(C(F)(F)F)c2)n2ncc(C#N)c2N1C(=O)CN1CCN(Cc2ccccc2)CC1 (stereo not drawn) [Example 95, dihydrochloride]", "TRUE"],
  ["CC1=C(c2ccc(Cl)cc2)n2ncc(C#N)c2N(C(=O)CN2CCN(Cc3cccc(Cl)c3)CC2)C1 [Example 133, dihydrochloride]", "TRUE"],
  ["O=C(CN1CCN(Cc2ccccc2)CC1)N1CC=C(c2cccc(C(F)(F)F)c2)n2ncc(Cl)c21 [Example 155, dihydrochloride]", "FALSE"],
  ["CC1=C(c2cccc(Cl)c2)n2ncc(C#N)c2N(C(=O)CN2CCN(Cc3ccccc3F)CC2)C1 [Example 157, dihydrochloride]", "TRUE"],
  ["N#Cc1cnn2c1N(C(=O)CN1CCN(Cc3ccccc3C(F)(F)F)CC1)CC=C2c1cccc(C(F)(F)F)c1 [Example 151]", "FALSE"],
  ["COc1cccc(CN2CCN(CC(=O)N3CC(C)=C(c4cccc(Cl)c4)n4ncc(C#N)c43)CC2)c1 [Example 143, dihydrochloride]", "TRUE"]
]}

Numbers sourced from patent US4963553A.
